inhibition values by entry
- Assay: inhibitors of the yeast RAM network, pilot screen, dse1pr::URA3 reporter, 5-FOA selection (AID 869);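 note: 0% = DMSO wells with no growth and 100% = 10 µM 1-NA-PP1 with full growth; RAM network block rescues cells from 5-FOA so hits raise OD615 growth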
- Condition Description: S. cerevisiae dse1pr::URA3 5-FOA growth, OD615, 2 d; at 10 µM; hits give high values; strain carries analog-sensitive mutant Cbk1 kinase
Write the number in % without appending the unit.

# count of solved cases: 10
>>> observed_result("COc1ccc(C)cc1Nc1cc(C)nc2nc(C)nn12")
1.47
>>> observed_result("O=C1c2ccccc2C(Nc2ccc3c(c2)OCCO3)N1c1ccccn1 (configuration not stated)")
1.86
>>> observed_result("Cc1cc(NC(=O)C2CC(c3ccc(F)cc3)=NO2)no1 (configuration not stated)")
-0.08
>>> observed_result("Cn1c(=O)c(C(=O)Nc2ncccn2)c(O)c2ccccc21")
0.475
>>> observed_result("COc1ccc(OCC(=O)OCCN2C(=O)c3ccccc3C2=O)cc1")
0.97
>>> observed_result("COc1ccc(CNC(=O)c2cc3c(C)nc4ccccc4c3o2)c(OC)c1")
1.66
>>> observed_result("COC(=O)c1ccc(NCC(=O)c2ccccc2)cc1")
1.83
>>> observed_result("Cc1ccc(C2CC(c3ccccc3C)n3nc(N)nc3N2)cc1 (configuration not stated)")
0.77
>>> observed_result("CCNc1nc(NCC)nc(Oc2ccc(OCC)nn2)n1")
2.82
>>> observed_result("CCC(=NCCc1ccccc1)C1=C(O)CCC1=O")
0.325

Name the recorded inhibition for C#CCn1c(=NC(=O)c2cccs2)sc2cccc(OC)c21 .
3.34
